Tested on: SF-539 CNS
procedure summary: NCI tumour cell line growth inhibition, 48 h
Provide the recorded GI50 for the entries that follow.

Q: Using the record for CN(Cc1cnc2nc(N)nc(N)c2n1)c1ccc(C(=O)NC(CCC(=O)O)C(=O)O)cc1Br (stereo unspecified) , report its GI50.
Result: < 0.01 µM

Q: Follow-up item: "O=C(COc1cccc(/C=C2\CSc3ccccc3C2=O)c1)Nc1nccs1"
Result: 2.4 µM

Q: Follow-up item: "CN1CCN(CCCOc2cccc3nc(Nc4ccc(Cl)c(C(F)(F)F)c4)ccc23)CC1"
Result: 1.58 µM

Q: Follow-up item: "CN(CCCNC(=O)CCOCCOCCOCCNC(=O)Cc1ccc2ccc3cccc4ccc1c2c34)CCCNc1cc(-c2ccc3ccccc3c2)nc2ccccc12"
Result: 0.526 µM

Q: Follow-up item: c1ccc2c3c([nH]c2c1)C(c1ccc(C2NCCc4c2[nH]c2ccccc42)cc1)NCC3 (stereo unspecified)
Result: 1.62 µM

Q: Follow-up item: CC(=O)[CH-]C(=O)c1ccccc1.CC(=O)[CH-]C(=O)c1ccccc1.C[C@]12CCC(=O)C=C1CC[C@@H]1C2CC[C@@]2(C)C1CC[C@]2(C)[O-].C[C@]12CCC(=O)C=C1CC[C@@H]1C2CC[C@@]2(C)C1CC[C@]2(C)[O-].Cl.[Ti+4] (stereo partly specified)
Result: 13.9 µM

Q: Follow-up item: "COc1ccc(N=N/C(C(=O)C(F)(F)F)=C(\O)c2ccc(Cl)cc2)cc1"
Result: 6.33 µM

Q: Follow-up item: "COc1cc2cc(Oc3ccc(NC(=O)Nc4ccc(Cl)c(Cl)c4)cc3)c(C)nc2cc1OC"
Result: 5.18 µM

Q: Follow-up item: "c1cc2c(cn1)Nc1ccncc1S2"
Result: 33.8 µM

Q: Follow-up item: "CO[C@H]1C[C@@H]2CC[C@@H](C)[C@@](O)(O2)C(=O)C(=O)N2CCCC[C@H]2C(=O)O[C@H]([C@H](C)C[C@@H]2CC[C@@H](OCCO)[C@H](OC)C2)CC(=O)[C@H](C)C=C(C)[C@@H](O)[C@@H](OC)C(=O)[C@H](C)C[C@H](C)/C=C/C=C/C=C1C"
Result: < 0.01 µM

Q: Follow-up item: "COc1cc2c(=O)[nH]c3cc([N+](=O)[O-])ccc3c2cc1[N+](=O)[O-]"
Result: 4.65 µM

Sourced from PubChem BioAssay (NCI)
